TARGET OF ASSAY: NMUR2 (Homo sapiens, UniProt Q9GZQ4)
Construct: purchased Promega (in-house HiBiT-GPCR construct library, NanoBRET)
Sequence (Q9GZQ4 whole entry): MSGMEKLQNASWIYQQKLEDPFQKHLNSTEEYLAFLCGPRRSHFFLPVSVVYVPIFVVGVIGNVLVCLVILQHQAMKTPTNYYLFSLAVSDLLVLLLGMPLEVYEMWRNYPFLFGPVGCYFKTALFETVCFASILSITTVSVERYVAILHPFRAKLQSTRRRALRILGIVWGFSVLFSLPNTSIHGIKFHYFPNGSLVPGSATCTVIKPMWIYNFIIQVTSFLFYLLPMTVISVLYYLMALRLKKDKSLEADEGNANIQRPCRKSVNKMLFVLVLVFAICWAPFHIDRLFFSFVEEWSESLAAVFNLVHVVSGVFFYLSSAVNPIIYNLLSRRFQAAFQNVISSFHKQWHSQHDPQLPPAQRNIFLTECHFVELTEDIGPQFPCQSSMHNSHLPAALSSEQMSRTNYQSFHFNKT
ASSAY SUMMARY: NanoBRET screen HiBiT-NMUR2 in HEK293
Assay type: binding
CONDITION SUMMARY: NMUR2; tracer 1μM
Protocol: Each tracer candidate was screened across the entire library of HiBiT-GPCR constructs using NanoBRET as the detection modality. As depicted in Figure 4A, the specificity of interactions was evaluated through decrease in BRET due to competitive displacement of a bound tracer by excess parental compound. Each tracer was analyzed for binding to each HiBiT-GPCR fusion in the absence and in the presence of competing parental compound. […]
Listed below: NanoBRET Fold Response values for each entry.
No unit in the answer, please; the number alone is enough.

O=C(CCOCCOCCOCCOCCNC(=O)CCc1ccc2n1[B-](F)(F)[N+]1=C(c3ccc[nH]3)C=CC1=C2)NCCCN1CCN(C2=Nc3ccccc3Oc3ccc(Cl)cc32)CC1 ... 0.74

Next compound, please.
**Q:** # assay system NMUR2 (Homo sapiens, UniProt Q9GZQ4): give NanoBRET Fold Response of N#CN=C(NCCCOc1cccc(CN2CCCCC2)c1)NCCNC(=O)CCOCCOCCOCCOCCNC(=O)CCc1ccc2n1[B-](F)(F)[N+]1=C(c3ccc[nH]3)C=CC1=C2
**A:** 1.05

====

Listed below: NanoBRET Fold Response values for each entry.
TARGET OF ASSAY: F2RL2 (Homo sapiens, UniProt O00254)
Construct: purchased Promega (in-house HiBiT-GPCR construct library, NanoBRET)
Sequence (O00254 22-374): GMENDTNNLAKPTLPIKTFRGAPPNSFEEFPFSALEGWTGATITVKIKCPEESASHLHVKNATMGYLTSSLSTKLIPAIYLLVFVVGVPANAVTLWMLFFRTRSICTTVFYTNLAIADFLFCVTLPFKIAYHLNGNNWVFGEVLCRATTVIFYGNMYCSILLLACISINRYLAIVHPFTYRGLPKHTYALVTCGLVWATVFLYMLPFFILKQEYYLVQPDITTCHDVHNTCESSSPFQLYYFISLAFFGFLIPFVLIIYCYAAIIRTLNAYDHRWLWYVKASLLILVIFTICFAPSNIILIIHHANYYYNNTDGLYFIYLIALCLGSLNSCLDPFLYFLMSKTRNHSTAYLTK
ASSAY SUMMARY: NanoBRET screen HiBiT-F2RL2 in HEK293
Format: binding
CONDITION SUMMARY: F2RL2; tracer 0.1μM
No unit in the answer, please; the number alone is enough.

**Q:** Output measured NanoBRET Fold Response for this item: N#CN=C(NCCCOc1cccc(CN2CCCCC2)c1)NCCNC(=O)CCOCCOCCOCCOCCNC(=O)CCc1ccc2n1[B-](F)(F)[N+]1=C(c3ccc[nH]3)C=CC1=C2
**A:** 0.95

====

TARGET OF ASSAY: HTR6 (Homo sapiens)
Construct: purchased Promega (in-house HiBiT-GPCR construct library, NanoBRET)
Sequence (P50406 whole entry): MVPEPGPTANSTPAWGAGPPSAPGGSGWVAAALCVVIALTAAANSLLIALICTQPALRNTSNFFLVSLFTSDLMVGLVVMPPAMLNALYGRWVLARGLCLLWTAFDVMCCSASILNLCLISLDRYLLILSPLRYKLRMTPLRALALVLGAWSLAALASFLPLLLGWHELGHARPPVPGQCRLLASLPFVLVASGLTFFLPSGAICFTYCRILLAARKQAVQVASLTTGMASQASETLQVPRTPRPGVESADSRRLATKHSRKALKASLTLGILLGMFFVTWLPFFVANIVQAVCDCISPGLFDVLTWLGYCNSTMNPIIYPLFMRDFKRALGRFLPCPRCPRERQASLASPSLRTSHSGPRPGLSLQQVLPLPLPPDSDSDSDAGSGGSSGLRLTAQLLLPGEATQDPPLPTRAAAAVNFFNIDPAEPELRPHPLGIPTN
ASSAY SUMMARY: NanoBRET screen HiBiT-HTR6 in HEK293
Assay type: binding
CONDITION SUMMARY: HTR6; tracer 1μM
Listed below: NanoBRET Fold Response values for each entry.
No unit in the answer, please; the number alone is enough.

O=C(CCc1ccc2n1[B-](F)(F)[N+]1=C(c3ccc[nH]3)C=CC1=C2)NCc1ccc(C(=O)NCCOCCC(=O)N[C@@H]2CC[C@@]3(O)[C@H]4Cc5ccc(O)c6c5[C@@]3(CCN4CC3CC3)[C@H]2O6)cc1 [Naltrexone-3-NB590] ... 0.95
CCCn1c(=O)c2[nH]c(-c3ccc(OCC(=O)NCCNC(=O)CCOCCNC(=O)c4ccc(CNC(=O)CCc5ccc6n5[B-](F)(F)[N+]5=C(c7ccc[nH]7)C=CC5=C6)cc4)cc3)nc2n(CCC)c1=O [XAC-3-NB590] ... 0.93
COc1ccccc1N1CCN(CCCCN2C(=O)c3ccc(CNC(=O)CCOCCNC(=O)c4ccc(CNC(=O)CCc5ccc6n5[B-](F)(F)[N+]5=C(c7ccc[nH]7)C=CC5=C6)cc4)cc3C2=O)CC1 [NAN-190-3-NB590] ... 1.19

**Q:** Output measured NanoBRET Fold Response for this item: O=C(CCc1ccc2n1[B-](F)(F)[N+]1=C(c3ccc[nH]3)C=CC1=C2)NCCOCCOCCNC(=O)OCCOCCN1CCN(C2=Nc3ccccc3Sc3ccccc32)CC1 [Quetiapine-a-2-NB590]
**A:** 0.98

**Q:** Output measured NanoBRET Fold Response for this item: Cc1cc2c(s1)Nc1ccccc1N=C2N1CCN(CCCNC(=O)CCOCCOCCOCCOCCNC(=O)CCc2ccc3n2[B-](F)(F)[N+]2=C(c4ccc[nH]4)C=CC2=C3)CC1 [Olanzapine-a-2-NB590]
**A:** 1.15

**Q:** Output measured NanoBRET Fold Response for this item: Cc1nc2n(c(=O)c1CCN1CCC(c3noc4cc(F)ccc34)CC1)CCCC2OC(=O)NCCOCCOCCOCCOCCNC(=O)CCc1ccc2n1[B-](F)(F)[N+]1=C(c3ccc[nH]3)C=CC1=C2 (stereo not drawn) [Risperidone-2-NB590]
**A:** 1.34
